These entries and their values trace back to the supplement of paper PMC10065799.

- Tested on: c-Abl (mouse);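 further: frequency after pTyr selection over input frequency; kinase dosed for 20-30% of maximal phosphorylation in three min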
- method notes: phosphorylation enrichment, bacterial display (enrichment ratio); higher = better substrate or ligand; peptides without Tyr show the background
observable: phosphorylation enrichment
Keep it simple and answer with nothing but the number.

| sequence content | experimental value |
| --- | --- |
| KSIQLYDTPFE [SHB_Y297_G293S_YF] | 1.29 |
| EKKDVYKTGEQ [CFH_Y1008_A1010T] | 0.42 |
| HELFVYKCDEN [DOCK3_Y548_YF] | 1.5 |

Query :: Value wanted: phosphorylation enrichment (c-Abl (mouse)) of entry CNNFIYGGCRG [SPINT2_Y163]
Result :: 0.442

Query :: Find the measured phosphorylation enrichment: item TETGRYEILTE , target or system c-Abl (mouse).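 Further: frequency after pTyr selection over input frequency; kinase dosed for 20-30% of maximal phosphorylation in three min.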
Result :: 0.389

Query :: GET /values?readout=phosphorylation enrichment&system=c-Abl (mouse)&item= SPPILYSFYLD [FCRL6_Y239];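 further: 11-residue human phosphosite peptides and single-mutation variants displayed on the E. coli surface, counted by deep sequencing, each peptide's frequency after selection divided by its frequency in the unselected input library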;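 further: frequency after pTyr selection over input frequency; kinase dosed for 20-30% of maximal phosphorylation in three min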
Result :: 0.736

Query :: Kindly state the measured phosphorylation enrichment obtained for NTGLEYIKFTW [HRH1_Y386_D385E] with c-Abl (mouse).
Result :: 0.657
